system: Human Breast Adenocarcinoma Cell Line MDA-MB-231; test: Drug cytotoxicity testing (viable cell count, trypan blue exclusion, cell growth inhibition); format: cell-based; details: Homo sapiens, MDA-MB-231, compound alone 10^-7 mol/L; read-out: Cell growth inhibition in A compared to that in B was increased by
Classification field: fulfilled = inhibition at 0.1 µM at or over 20%; not fulfilled = inhibition at 0.1 µM under 20%.

INPUT: Decide: inhibition at 0.1 µM of CCOC(=O)[C@H](CCS(=O)(=O)O)NC(=O)\C=C(C)/C=C/C=C(C)/C=C/C1=C(C)CCCC1(C)C [compound II-3b] >= 20%?
OUTPUT: fulfilled

INPUT: Decide: inhibition at 0.1 µM of CC1=C(/C=C/C(C)=C/C=C/C(C)=C/C(=O)N[C@@H](CS(=O)(=O)O)C(N)=O)C(C)(C)CCC1 [compound I-1f] >= 20%?
OUTPUT: not fulfilled

INPUT: Decide: inhibition at 0.1 µM of CC1=C(/C=C/C(C)=C/C=C/C(C)=C/C(=O)N[C@@H](CCS(=O)(=O)O)C(N)=O)C(C)(C)CCC1 [compound I-3f] >= 20%?
OUTPUT: fulfilled

INPUT: Decide: inhibition at 0.1 µM of CC1=C(/C=C/C(C)=C/C=C/C(C)=C\C(=O)N[C@@H](CS(=O)(=O)O)C(N)=O)C(C)(C)CCC1 [compound II-1f, N-(13-cis-retinoyl)-L-cysteic acid amide] >= 20%?
OUTPUT: not fulfilled

INPUT: Decide: inhibition at 0.1 µM of CC1=C(/C=C/C(C)=C/C=C/C(C)=C/C(=O)N[C@@H](CS(=O)(=O)O)C(=O)N(C)C)C(C)(C)CCC1 [compound I-1h] >= 20%?
OUTPUT: fulfilled

INPUT: Decide: inhibition at 0.1 µM of CC1=C(/C=C/C(C)=C/C=C/C(C)=C\C(=O)N[C@@H](CS(=O)(=O)O)C(=O)O)C(C)(C)CCC1 [compound II-1, N-(13-cis-Retinoyl)-L-cysteic acid] >= 20%?
OUTPUT: not fulfilled

* * *

Give measured cell growth inhibition in (A) compared to compound in B for each item. Keep answers brief.
tested on: Human Breast Adenocarcinoma Cell Line MDA-MB-231; test: Drug cytotoxicity testing (viable cell count, trypan blue exclusion, cell growth inhibition); type: cell-based; settings: sodium salt, range 10^-9 to 10^-7 M

// cell growth inhibition in (A) compared to compound in B lookup, compound = CC1=C(/C=C/C(C)=C/C=C/C(C)=C/C(=O)N[C@@H](CS(=O)(=O)O)C(=O)N(C)C)C(C)(C)CCC1 , result: ~21%

// cell growth inhibition in (A) compared to compound in B lookup, compound = COC(=O)[C@H](CS(=O)(=O)O)NC(=O)\C=C(C)/C=C/C=C(C)/C=C/C1=C(C)CCCC1(C)C , result: ~14%

// cell growth inhibition in (A) compared to compound in B lookup, compound = CC1=C(/C=C/C(C)=C/C=C/C(C)=C\C(=O)N[C@@H](CS(=O)(=O)O)C(N)=O)C(C)(C)CCC1 [compound II-1f, N-(13-cis-retinoyl)-L-cysteic acid amide] , result: ~15%

// cell growth inhibition in (A) compared to compound in B lookup, compound = CCOC(=O)[C@H](CCS(=O)(=O)O)NC(=O)\C=C(C)/C=C/C=C(C)/C=C/C1=C(C)CCCC1(C)C , result: ~29%

// cell growth inhibition in (A) compared to compound in B lookup, compound = CC1=C(/C=C/C(C)=C/C=C/C(C)=C/C(=O)N[C@@H](CS(=O)(=O)O)C(N)=O)C(C)(C)CCC1 , result: ~15%

// cell growth inhibition in (A) compared to compound in B lookup, compound = CC1=C(/C=C/C(C)=C/C=C/C(C)=C/C(=O)N[C@@H](CCS(=O)(=O)O)C(N)=O)C(C)(C)CCC1 , result: ~22%

* * *

test system: Human Breast Adenocarcinoma Cell Line MDA-MB-231; test: Drug cytotoxicity testing (viable cell count, trypan blue exclusion, cell growth inhibition); format: cell-based; settings: compound alone, final concentration 10^-8 mol/L; working solutions in MEM with 5% FBS; two days
Give measured number of viable cells for each item. Keep answers brief.

// number of viable cells lookup, molecule = CCOC(=O)[C@H](CCS(=O)(=O)O)NC(=O)\C=C(C)/C=C/C=C(C)/C=C/C1=C(C)CCCC1(C)C [compound II-3b] , result: 25.2 ± 1.27 × 10^3

// number of viable cells lookup, molecule = CCOC(=O)[C@H](CS(=O)(=O)O)NC(=O)/C=C(C)/C=C/C=C(C)/C=C/C1=C(C)CCCC1(C)C [compound I-1b] , result: 31.9 ± 2.16 × 10^3

// number of viable cells lookup, molecule = CCCCOC(=O)[C@H](CS(=O)(=O)O)NC(=O)/C=C(C)/C=C/C=C(C)/C=C/C1=C(C)CCCC1(C)C [compound I-1e] , result: 27.1 ± 1.75 × 10^3

// number of viable cells lookup, molecule = COC(=O)[C@H](CS(=O)(=O)O)NC(=O)/C=C(C)/C=C/C=C(C)/C=C/C1=C(C)CCCC1(C)C [compound I-1a] , result: 31.1 ± 1.90 × 10^3

// number of viable cells lookup, molecule = CC1=C(/C=C/C(C)=C/C=C/C(C)=C/C(=O)N[C@@H](CS(=O)(=O)O)C(=O)OC(C)C)C(C)(C)CCC1 [compound I-1c] , result: 30.4 ± 1.79 × 10^3

// number of viable cells lookup, molecule = CCCOC(=O)[C@H](CS(=O)(=O)O)NC(=O)/C=C(C)/C=C/C=C(C)/C=C/C1=C(C)CCCC1(C)C [compound I-1d] , result: 26.3 ± 1.67 × 10^3

// number of viable cells lookup, molecule = CNC(=O)[C@H](CS(=O)(=O)O)NC(=O)/C=C(C)/C=C/C=C(C)/C=C/C1=C(C)CCCC1(C)C [compound I-1g] , result: 36.2 ± 1.95 × 10^3

* * *

Test system: Human Breast Adenocarcinoma Cell Line MDA-MB-231
Assay: Drug cytotoxicity testing (viable cell count, trypan blue exclusion, cell growth inhibition)
Assay type: cell-based
Conditions: compound alone, final concentration 10^-8 mol/L; working solutions in MEM with 5% FBS; two days
Experimental: MDA-MB-231 cells were propagated in MEM culture medium with 2 mM L-glutamine, 10% heat-inactivated fetal bovine serum (FBS) and antibiotics. […] The cell cultures in cultivation plates were allowed to adhere for 24 hour of incubation. […] At the end of the incubation period adherent cells were detached by trypsinization and the number of viable cells was counted using trypan blue exclusion test and a hemocytometer. […] The drug cytotoxicity was evaluated based on the extent of cell growth inhibition. […]
ASSAY ENDPOINT: number of viable cells

// number of viable cells lookup, compound = CC1=C(/C=C/C(C)=C/C=C/C(C)=C/C(=O)N[C@@H](CS(=O)(=O)O)C(N)=O)C(C)(C)CCC1 , result: 27.4 ± 1.42 × 10^3

// number of viable cells lookup, compound = CC1=C(/C=C/C(C)=C/C=C/C(C)=C\C(=O)N[C@@H](CS(=O)(=O)O)C(N)=O)C(C)(C)CCC1 [compound II-1f, N-(13-cis-retinoyl)-L-cysteic acid amide] , result: 28.5 ± 2.13 × 10^3

// number of viable cells lookup, compound = CCOC(=O)[C@H](CS(=O)(=O)O)NC(=O)\C=C(C)/C=C/C=C(C)/C=C/C1=C(C)CCCC1(C)C , result: 31.4 ± 1.94 × 10^3

// number of viable cells lookup, compound = COC(=O)[C@H](CCS(=O)(=O)O)NC(=O)/C=C(C)/C=C/C=C(C)/C=C/C1=C(C)CCCC1(C)C , result: 34.9 ± 1.64 × 10^3

// number of viable cells lookup, compound = CC1=C(/C=C/C(C)=C/C=C/C(C)=C/C(=O)N[C@@H](CS(=O)(=O)O)C(=O)N(C)C)C(C)(C)CCC1 , result: 34.1 ± 1.89 × 10^3

// number of viable cells lookup, compound = CCCOC(=O)[C@H](CS(=O)(=O)O)NC(=O)\C=C(C)/C=C/C=C(C)/C=C/C1=C(C)CCCC1(C)C , result: 28.2 ± 1.29 × 10^3

// number of viable cells lookup, compound = CC1=C(/C=C/C(C)=C/C=C/C(C)=C/C(=O)N[C@@H](CCS(=O)(=O)O)C(N)=O)C(C)(C)CCC1 , result: 29.0 ± 1.32 × 10^3

// number of viable cells lookup, compound = COC(=O)[C@H](CS(=O)(=O)O)NC(=O)\C=C(C)/C=C/C=C(C)/C=C/C1=C(C)CCCC1(C)C , result: 32.7 ± 2.06 × 10^3

* * *

Give measured inhibition at 0.1 µM for each item. Keep answers brief.
system: Human Breast Adenocarcinoma Cell Line MDA-MB-231; experiment: Drug cytotoxicity testing (viable cell count, trypan blue exclusion, cell growth inhibition); type: cell-based; conditions: Homo sapiens, MDA-MB-231, compound alone 10^-7 mol/L; read-out: Cell growth inhibition in A compared to that in B was increased by
Answer by giving the amount and then stating its unit.

// inhibition at 0.1 µM lookup, molecule = COC(=O)[C@H](CS(=O)(=O)O)NC(=O)\C=C(C)/C=C/C=C(C)/C=C/C1=C(C)CCCC1(C)C [compound II-1a] , result: 14.1%

// inhibition at 0.1 µM lookup, molecule = CNC(=O)[C@H](CS(=O)(=O)O)NC(=O)/C=C(C)/C=C/C=C(C)/C=C/C1=C(C)CCCC1(C)C [compound I-1g] , result: 26.5%

// inhibition at 0.1 µM lookup, molecule = CC1=C(/C=C/C(C)=C/C=C/C(C)=C/C(=O)N[C@@H](CS(=O)(=O)O)C(=O)O)C(C)(C)CCC1 [compound I-1, N-(all-trans-Retinoyl)-L-cysteic acid] , result: 14.8%

These entries and their values trace back to patent EP1534672B1.
